compound | melting point
Cc1cc(C)cc(S(=O)(=O)NNC(N)=S)c1 [Compound 12e] | 160 to 162 °C
Cc1ccc(S(=O)(=O)Nc2ccc(S(=O)(=O)Nc3ncccn3)cc2)cc1 | 223 to 225 °C
Cc1cc(C)cc(S(=O)(=O)NC23CC4CC(CC(C4)C2)C3)c1 | 162 to 164 °C
NC(=S)NNS(=O)(=O)c1cccc(Cl)c1Cl [Compound 12d] | 229 to 231 °C
Cc1ccc(S(=O)(=O)NNC(N)=S)cc1[N+](=O)[O-] [Compound 12f] | 160 to 163 °C
NC(=S)NNS(=O)(=O)c1ccc([N+](=O)[O-])cc1 [Compound 12b] | 160 to 162 °C
O=S(=O)(NC12CC3CC(CC(C3)C1)C2)c1cccc(Cl)c1Cl | 221 to 230 °C
O=S(=O)(Nc1ccc(S(=O)(=O)Nc2ncccn2)cc1)c1ccc(-c2ccccc2)cc1 | 168 to 170 °C

src = paper PMC6152116
